// values below are reported concentration at 0.5 h
assay: Serum concentration in mice after subcutaneous administration; format: in vivo; details: mouse, sc, subcutaneous 25 mg/kg, 1/2 hr
Structures can show the parent of a compound that is named as a salt.
Answer format: numeric, ng/mL implied, no suffix.

// below: answered compounds
// recorded concentration at 0.5 h for CO/N=C(\C(=O)N[C@@H]1C(=O)N2C(C(=O)O)=C(CSc3cc[n+](CC(=O)O)cc3)CS[C@H]12)c1csc(N)n1.[Na+] : 12500

What the record says about CCO/N=C(\C(=O)N[C@@H]1C(=O)N2C(C(=O)O)=C(CSc3cc[n+](CC(=O)O)cc3)CS[C@H]12)c1csc(N)n1.[Na+] : concentration at 0.5 h is 28500

concentration at 0.5 h reading for C[n+]1ccc(SCC2=C(C(=O)[O-])N3C(=O)[C@@H](NC(=O)/C(=N\OCC(=O)O)c4csc(N)n4)[C@H]3SC2)c2c1CCC2 [Example 51, sodium salt] : 24000

Next:
# compound CO/N=C(\C(=O)N[C@@H]1C(=O)N2C(C(=O)[O-])=C(CSc3cc[n+](CC(=O)O)c4c3CCC4)CS[C@H]12)c1csc(N)n1 [Example 34, sodium salt] ; its concentration at 0.5 h = 21000
